Biological target: Serine/threonine-protein kinase pim-1 (Homo sapiens, UniProt P11309)
Sequence (P11309 whole entry, looked up): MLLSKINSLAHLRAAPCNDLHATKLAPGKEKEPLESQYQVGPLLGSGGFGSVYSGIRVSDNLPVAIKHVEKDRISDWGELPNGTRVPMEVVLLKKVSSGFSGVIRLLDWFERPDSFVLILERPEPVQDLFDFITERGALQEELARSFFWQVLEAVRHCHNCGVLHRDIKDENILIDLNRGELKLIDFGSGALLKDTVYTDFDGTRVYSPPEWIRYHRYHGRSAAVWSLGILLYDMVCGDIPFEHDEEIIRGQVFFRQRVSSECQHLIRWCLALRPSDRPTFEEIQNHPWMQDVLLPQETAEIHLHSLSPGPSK
Experiment: Inhibition of recombinant human PIM-1 extracted from bacteria using histone H1 as substrate assessed as enzyme residual activity at 1 uM incubated for 30 mins in presence of ATP by ADP-Glo kinase assay relative to control
Would you mind classing the entries by Activity? Ranges: lower: < 60%; middle: ≥ 60% and < 70%; upper: ≥ 70%

Exercise: In plain terms, what class is "c1ccc(-c2c[nH]c3cc4cnccc4cc23)nc1" ?
Solution: middle

Exercise: In plain terms, what class is O=C1CCC(N2C(=O)c3cccc(NCCOCCOCCOCCn4cc(-c5ccncc5)c5cc6ccncc6cc54)c3C2=O)C(=O)N1 (stereo unspecified) ?
Solution: upper

Exercise: In plain terms, what class is O=C1CCC(N2C(=O)c3cccc(NCCOCCOCCOCCNC(=O)c4c[nH]c5cc6cnccc6cc45)c3C2=O)C(=O)N1 (stereo unspecified) ?
Solution: middle

Exercise: In plain terms, what class is "Cn1cc(-c2ccncc2)c2cc3ccncc3cc21" ?
Solution: lower

Exercise: In plain terms, what class is O=C1CCC(N2C(=O)c3cccc(NCCOCCOCCOCCn4ccc5cc6ccncc6cc54)c3C2=O)C(=O)N1 (stereo unspecified) ?
Solution: upper

Exercise: In plain terms, what class is "Cn1cc(-c2ccccn2)c2cc3ccncc3cc21" ?
Solution: upper

Exercise: In plain terms, what class is "Cn1cc(-c2cccnc2)c2cc3ccncc3cc21" ?
Solution: lower

Exercise: In plain terms, what class is "c1cncc(-c2c[nH]c3cc4cnccc4cc23)c1" ?
Solution: lower

Exercise: In plain terms, what class is "c1cc2cc3c(cc2cn1)NCC3" ?
Solution: middle

Exercise: In plain terms, what class is "c1cc2c(ccc3cc[nH]c32)cn1" ?
Solution: middle
